Experiment: yeast display, Sf9 membrane polyspecificity reagent, FACS + sequencing; frameworks hold sequencing errors
attributeMeasured: polyreactivity (PSR sort gate)

Observe how each entry below is paired with its result.
>>> reportedresult("QVQLVESGGGLVQAGGSLRLSCAASGNIFVPNAMGWYRQAPGKERELVAAIRRGGSTNYADSVKGRFTISRDNAKNTVYLQMNSLKPEDTAVYYCAAYYTYLYHYGTFKIYNYWGQGTQVTVSS")
"low polyreactivity"
>>> reportedresult("QVQLVESGVGLVQAGGSLRLICDASGRIYSYYAIGWYRQAPGKETELVASISRSGGSTYYADSVKGRFTISRDNAKNTVYLQMNSLKPEETAVYYCAAYKYVRSYPYDYWGQGTQVTVSS")
"low polyreactivity"
>>> reportedresult("QLQLVESGGGLVQAGGSLRLSCAASGSIFYPYAMGWYRQAPGKERELVATINEDGGSTYYADSVKGRFTISRDNAKNTVYLQMNSLKQEDTAVYYCNTDHFEDYHTDFWSDYEYWGHGTQVTVSS")
"low polyreactivity"
>>> reportedresult("QVQLVESGGGLVQAGGSLRLSCAASGLTFRYNTMGWYRQAPGKEREFVAAINYGGGSTYYADSVKGRFTISRDNAKNTVYLQMNSLKPEDTAVYYCARRTPRTPVTLYDYWGQGTQVTVSS")
"high polyreactivity"
>>> reportedresult("QVQLVESGGGLVQAGGSLHLSCAASGSIFRKNAMGWYRQAPGKERELVAVITSSGASTYYADSVKGRFTISRDNAKNTVYLQMNSLKPEDTAVYYCNAPSFYTKKMYSWGQGTQVTVSS")
"high polyreactivity"

[ask] Entry under review: `QVQIVESGGGLVQAGGSLRLSCDASGSIFYSNAIGWYRQAPGKERELVASIRGSGVSTYYADSVKGRFTISRDNAKNTVYLQMNSLKPEDTAVYYCAARYVRSYFGFYYWGQGTQVTVSS` . Reported polyreactivity (PSR sort gate)?
[reply] high polyreactivity

[ask] Which polyreactivity (PSR sort gate) is reported for this sequence? `QVRLVESGGGLDQAGGSLPLSCAASGRTFEPNAMGWYRQAPGKERELVAAITSAGITHYADSVKGRFTISRDNAKNTVYLQMNSLKPEDTAVYYCRLQTGIIDRLRRYNYWGQGTQVTVSS`
[reply] high polyreactivity

[ask] Requested read-out: polyreactivity (PSR sort gate). Entry: `QVQIGESGGGLVQAGGSLRLSCAASGFIIGTNTMGWYRQAPGKERELVAAITSVGSTNYADSVKGRFTISRDNAKNTVYLQMNSLKPEDTAVYYCPATLYYQYGGDYWGQGTQVTVSS`
[reply] low polyreactivity

[ask] polyreactivity (PSR sort gate) for `QVQLVESGGGLVQAGGSLRLSCAASGSTFWVNAMGWYRQAPGKERELVAAITVRGTSTYYADSVKGRFTISRDNAKNTVYLQMNSLKPEDTAVYYCAADTPSNSHDYWGQGTQVTVSS` ?
[reply] low polyreactivity

[ask] Which polyreactivity (PSR sort gate) value is on record for `QVQLVESGGGLVQAGGSLRLSCAASGRTFFRNAMGWYRQAPAKERELVAGISRSGGSTYYADSVKGRFTISRDNAQNTFSLEMNSLKPEDSAVYYFAAALYPYPGYEYWGQGTQVTVSS` ?
[reply] high polyreactivity
